Entries annotated with measured GI50
System: RPMI-8226
assay_remarks: NCI tumour cell line growth inhibition, 48 h
Active and inactive are the calls of the source. No stated cut-off is given here; in the data, active = GI50 up to about 1.1 µM and inactive = higher.

# count of solved cases: 2
COc1ccc2c(c1)OCC1(O)Cc3ccccc3OC21 (centres undefined) :: > 100 µM (inactive)
N#CC1(C2SCC[S+]2[O-])C2=C(C(=O)c3ccccc3C2=O)N2CCCC21 (centres undefined) :: 1.05 µM (active)

Task: Supply GI50 value. Item: O=C1CCCCCCCCCCC1CN1CCCCC1 (centres undefined)
Output: > 100 µM (inactive)

Task: Supply GI50 value. Item: c1ccc2c(c1)[nH]c1c2ncc2[nH]c3ccccc3c21
Output: 2.26 µM (inactive)

Task: Supply GI50 value. Item: Cc1ccc2c(=O)c3ccccc3sc2c1
Output: > 100 µM (inactive)

Task: Supply GI50 value. Item: N#CCCN(CCC#N)c1ccc(C(=N/c2ccc(F)cc2)/N=N/c2ccc(Cl)cc2)cc1
Output: > 100 µM (inactive)

Task: Supply GI50 value. Item: CC(C)CC1C(=O)OC(C)(C)OC1=O
Output: > 100 µM (inactive)

Task: Supply GI50 value. Item: Cc1n[n+](CC(=O)c2ccccc2)c2sc(N)nn12
Output: > 100 µM (inactive)
